testedOn: uPAR-expressing HEC-265 human endometrial adenocarcinoma cells (Homo sapiens, UniProt Q03405)
Sequence (Q03405 23-335): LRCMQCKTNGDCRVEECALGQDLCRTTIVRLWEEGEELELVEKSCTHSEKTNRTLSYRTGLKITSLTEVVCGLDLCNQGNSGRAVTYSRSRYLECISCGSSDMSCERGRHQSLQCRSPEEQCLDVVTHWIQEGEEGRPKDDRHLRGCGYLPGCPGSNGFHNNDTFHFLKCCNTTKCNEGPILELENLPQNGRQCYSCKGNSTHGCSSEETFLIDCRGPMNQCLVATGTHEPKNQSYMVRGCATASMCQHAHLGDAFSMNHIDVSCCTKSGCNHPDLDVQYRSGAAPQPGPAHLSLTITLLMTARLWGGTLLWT
pIC50: −log10 of the molar value. Where a SMILES comes first, the peptide text is derived from it. Bridges are numbered along the chain shown (N, C = ends). [ ]: non-standard residue; d: D form. The star is where a group is joined. DOTA = O=C(O)CN1CCN(CC(=O)O)CCN(CC(=O)*)CCN(CC(=O)O)CC1; Pentanoyl(4-Me) = CC(C)CCC(=O)*; Cit = NC(=O)NCCC[C@H](N)C(=O)O; dNva = CCC[C@@H](N)C(=O)O; Nva = CCC[C@H](N)C(=O)O; Pentanoyl = CCCCC(=O)*; Butyryl = CCCC(=O)*
observedProperty: pIC50

{"columns": ["compound", "valueMeasured"],
 "data": [
  ["CCCCC(=O)N[C@H]1CSSC[C@@H](C(N)=O)NC(=O)[C@H](CCC)NC(=O)[C@H]([C@@H](C)CC)NC(=O)[C@@H](CCC)NC(=O)[C@@H]2CCCN2C(=O)[C@H](Cc2ccccc2)NC(=O)[C@H](Cc2ccc(O)cc2)NC(=O)[C@H](CCC(N)=O)NC(=O)[C@H](CCCNC(=N)N)NC1=O [UPAR-322] (Pentanoyl-CRQYFP[dNva]I[Nva]C-NH2; disulfide 1-10)", "7.50 to 7.90"]
]}

Give me measured pIC50, please, for this compound: CC[C@H](C)[C@@H]1NC(=O)[C@@H](C)NC(=O)[C@@H]2CCCN2C(=O)[C@H](Cc2ccccc2)NC(=O)[C@H](Cc2ccc(O)cc2)NC(=O)[C@H](CCCCNC(=O)CN2CCN(CC(=O)O)CCN(CC(=O)O)CCN(CC(=O)O)CC2)NC(=O)[C@H](CCCNC(N)=O)NC(=O)[C@@H](NC(=O)CCC(C)C)CSSC[C@@H](C(N)=O)NC(=O)[C@H](CC(C)C)NC1=O [UPAR-256] ({Pentanoyl(4-Me)}-C[Cit]K(DOTA)YFP[dA]ILC-NH2; disulfide 1-10)
≥ 8.00

Give me measured pIC50, please, for this compound: CCCC(=O)N[C@H]1CSSC[C@@H](C(N)=O)NC(=O)[C@H](CC(C)C)NC(=O)[C@H]([C@@H](C)CC)NC(=O)[C@@H](C)NC(=O)[C@@H]2CCCN2C(=O)[C@H](Cc2ccccc2)NC(=O)[C@H](Cc2ccc(O)cc2)NC(=O)[C@H](CCC(N)=O)NC(=O)[C@H](CCCNC(N)=O)NC1=O [UPAR-139] (Butyryl-C[Cit]QYFP[dA]ILC-NH2; disulfide 1-10)
7.50 to 7.90

----------
testedOn: uPAR-expressing HEC-265 human endometrial adenocarcinoma cells (Homo sapiens, UniProt Q03405)
Where a SMILES comes first, the peptide text is derived from it. Bridges are numbered along the chain shown (N, C = ends). [ ]: non-standard residue; d: D form. The star is where a group is joined. DOTA = O=C(O)CN1CCN(CC(=O)O)CCN(CC(=O)*)CCN(CC(=O)O)CC1; Dopa = N[C@@H](Cc1ccc(O)c(O)c1)C(=O)O; Hyp = O=C(O)[C@@H]1C[C@@H](O)CN1; Pentanoyl(4-Me) = CC(C)CCC(=O)*; Cha = N[C@@H](CC1CCCCC1)C(=O)O; Cit = NC(=O)NCCC[C@H](N)C(=O)O; NMeNle = CCCC[C@H](NC)C(=O)O; Nle = CCCC[C@H](N)C(=O)O; Nva = CCC[C@H](N)C(=O)O; Pentanoyl = CCCCC(=O)*
observedProperty: IC50

Sample answers from the record:
{"columns": ["molecule", "observedProperty", "valueMeasured"],
 "data": [
  ["CCCC[C@@H]1NC(=O)[C@H](CCCNC(=N)N)NC(=O)[C@@H](NC(=O)[C@H](CC(C)C)NC(=O)[C@@H](CC(=O)O)NC(C)=O)CSSC[C@@H](C(N)=O)NC(=O)[C@H](CC(C)C)NC(=O)[C@H]([C@@H](C)CC)NC(=O)[C@H](C)NC(=O)[C@@H]2CCCN2C(=O)[C@H](Cc2ccccc2)NC(=O)[C@H](Cc2ccc(O)cc2)NC1=O [UPAR-133] (Ac-[dD]LCR[Nle]YFPAILC-NH2; disulfide 3-12)", "IC50", "≤ 10 nM"],
  ["CCCCC(=O)N[C@H]1CSSC[C@@H](C(N)=O)NC(=O)[C@H](CCC)NC(=O)[C@H]([C@@H](C)CC)NC(=O)[C@@H]2C[C@@H](O)CN2C(=O)[C@@H]2CCCN2C(=O)[C@H](Cc2ccccc2)NC(=O)[C@H](CC2CCCCC2)NC(=O)[C@H](CCC(N)=O)NC(=O)[C@H](CCCNC(=N)N)NC1=O [UPAR-373] (Pentanoyl-CRQ[Cha]FP[Hyp]I[Nva]C-NH2; disulfide 1-10)", "IC50", "≤ 10 nM"],
  ["CC[C@H](C)[C@@H]1NC(=O)[C@H](CCCCNC(=O)CN2CCN(CC(=O)O)CCN(CC(=O)O)CCN(CC(=O)O)CC2)NC(=O)[C@@H]2CCCN2C(=O)[C@H](Cc2ccccc2)NC(=O)[C@H](Cc2ccc(O)cc2)NC(=O)[C@H](CCC(N)=O)NC(=O)[C@@H](C)NC(=O)[C@@H](NC(=O)CCC(C)C)CSSC[C@@H](C(N)=O)NC(=O)[C@H](CC(C)C)NC1=O [UPAR-414] ({Pentanoyl(4-Me)}-C[dA]QYFPK(DOTA)ILC-NH2; disulfide 1-10)", "IC50", "12.6 to 31.6 nM"],
  ["CCCCC(=O)N[C@H]1CSSC[C@@H](C(N)=O)NC(=O)[C@H](CCC)NC(=O)[C@H]([C@@H](C)CC)NC(=O)[C@@H]2C[C@@H](O)CN2C(=O)[C@H](CCCC)N(C)C(=O)[C@H](Cc2ccccc2)NC(=O)[C@H](Cc2ccc(O)cc2)NC(=O)[C@H](CCC(N)=O)NC(=O)[C@H](CCCNC(=N)N)NC1=O [UPAR-337] (Pentanoyl-CRQYF[NMeNle][Hyp]I[Nva]C-NH2; disulfide 1-10)", "IC50", "≥ 126 nM"]
]}

Could you now look at the following molecule, please?
Give me measured IC50, please, for this molecule: CC[C@H](C)[C@@H]1NC(=O)[C@@H](C)NC(=O)[C@@H]2CCCN2C(=O)[C@H](Cc2ccccc2)NC(=O)[C@H](Cc2ccc(O)c(O)c2)NC(=O)[C@H](CCC(N)=O)NC(=O)[C@H](CCCNC(N)=O)NC(=O)[C@@H](NC(=O)CCC(C)C)CSSC[C@@H](C(N)=O)NC(=O)[C@H](CC(C)C)NC1=O [UPAR-144] ({Pentanoyl(4-Me)}-C[Cit]Q[Dopa]FP[dA]ILC-NH2; disulfide 1-10)
≤ 10 nM

----------
Listed compounds paired with reported Kd
testedOn: human uPAR (uPAR-Fc) (Homo sapiens, UniProt Q03405)
Construct: comprising amino acids Leu23-Arg303 according to UniProt entry Q03405.1; purchased R&D Systems 10378-UK-100
Sequence (Q03405 23-303): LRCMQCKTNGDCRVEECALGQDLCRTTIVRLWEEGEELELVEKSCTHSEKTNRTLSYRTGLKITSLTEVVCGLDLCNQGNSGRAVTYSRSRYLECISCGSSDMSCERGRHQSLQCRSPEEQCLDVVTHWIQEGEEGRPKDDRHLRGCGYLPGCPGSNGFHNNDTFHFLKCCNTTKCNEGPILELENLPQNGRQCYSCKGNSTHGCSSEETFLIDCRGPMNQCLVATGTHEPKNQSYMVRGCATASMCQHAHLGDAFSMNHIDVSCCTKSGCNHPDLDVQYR
measurementDescription: Surface plasmon resonance (SPR) assay, single cycle kinetics
Format: binding
recordedConditions: pKD category for uPAR SPR activity assay; uPAR-Fc on Protein A-Chip, 25°C; read-out: pKD CAT (converted)
Where a SMILES comes first, the peptide text is derived from it. Bridges are numbered along the chain shown (N, C = ends). [ ]: non-standard residue; d: D form. The star is where a group is joined. DOTA = O=C(O)CN1CCN(CC(=O)O)CCN(CC(=O)*)CCN(CC(=O)O)CC1; Pentanoyl(4-Me) = CC(C)CCC(=O)*; Cit = NC(=O)NCCC[C@H](N)C(=O)O

{"columns": ["compound", "Kd"],
 "data": [
  ["CC[C@H](C)[C@@H]1NC(=O)[C@H](CCCCNC(=O)CN2CCN(CC(=O)O)CCN(CC(=O)O)CCN(CC(=O)O)CC2)NC(=O)[C@@H]2CCCN2C(=O)[C@H](Cc2ccccc2)NC(=O)[C@H](Cc2ccc(O)cc2)NC(=O)[C@H](CCC(N)=O)NC(=O)[C@H](CCCNC(N)=O)NC(=O)[C@@H](NC(=O)CCC(C)C)CSSC[C@@H](C(N)=O)NC(=O)[C@H](CC(C)C)NC1=O [UPAR-145] ({Pentanoyl(4-Me)}-C[Cit]QYFPK(DOTA)ILC-NH2; disulfide 1-10)", "< 1.58 nM"]
]}

Could you now look at the following compound, please?
Give me measured Kd, please, for this compound: CC[C@H](C)[C@@H]1NC(=O)[C@@H](C)NC(=O)[C@@H]2CCCN2C(=O)[C@H](Cc2ccccc2)NC(=O)[C@H](Cc2ccc(O)cc2)NC(=O)[C@H](CCCCNC(=O)CN2CCN(CC(=O)O)CCN(CC(=O)O)CCN(CC(=O)O)CC2)NC(=O)[C@H](CCCNC(N)=O)NC(=O)[C@@H](NC(=O)CCC(C)C)CSSC[C@@H](C(N)=O)NC(=O)[C@H](CC(C)C)NC1=O [UPAR-256] ({Pentanoyl(4-Me)}-C[Cit]K(DOTA)YFP[dA]ILC-NH2; disulfide 1-10)
< 1.58 nM
